Attribute: IC50
biological target: NSUN2 (Homo sapiens); assay: Cell-based m5C-probe methyltransferase assay (flow cytometry, probe 9a); settings: HeLa cells, 30 min pre-incubation with inhibitor, probe 9a 10 μM, flow cytometry; read-out: IC50 against NSUN2
Sequence (Q08J23 whole entry): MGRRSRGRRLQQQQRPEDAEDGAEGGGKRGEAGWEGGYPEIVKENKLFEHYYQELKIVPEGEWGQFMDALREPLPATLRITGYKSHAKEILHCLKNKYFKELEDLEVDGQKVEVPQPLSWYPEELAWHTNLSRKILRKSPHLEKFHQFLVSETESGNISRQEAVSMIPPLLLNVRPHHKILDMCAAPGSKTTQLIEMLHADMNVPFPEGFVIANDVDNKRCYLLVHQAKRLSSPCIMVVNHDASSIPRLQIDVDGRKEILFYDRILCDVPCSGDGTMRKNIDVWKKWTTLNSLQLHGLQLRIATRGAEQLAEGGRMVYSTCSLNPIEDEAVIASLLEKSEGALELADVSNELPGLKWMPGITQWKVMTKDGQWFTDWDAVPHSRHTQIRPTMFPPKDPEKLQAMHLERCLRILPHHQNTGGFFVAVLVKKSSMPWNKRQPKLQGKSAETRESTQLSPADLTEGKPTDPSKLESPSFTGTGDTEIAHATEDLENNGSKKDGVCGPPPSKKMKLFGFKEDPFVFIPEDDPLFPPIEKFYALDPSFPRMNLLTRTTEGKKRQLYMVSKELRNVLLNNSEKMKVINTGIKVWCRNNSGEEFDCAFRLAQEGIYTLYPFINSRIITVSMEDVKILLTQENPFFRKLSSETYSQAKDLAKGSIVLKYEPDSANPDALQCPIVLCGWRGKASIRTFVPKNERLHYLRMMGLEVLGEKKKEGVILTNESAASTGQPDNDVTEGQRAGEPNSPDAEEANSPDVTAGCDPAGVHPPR

Some molecules with known IC50 results, for comparison:
{"molecule": "Nc1ncnc2c1ncn2[C@@H]1O[C@H](CO)[C@@H](O)[C@H]1O", "IC50": "> 200 µM"}
{"molecule": "NC(CCS)C(=O)O (stereo not drawn)", "IC50": "> 400 µM"}

Please turn your attention to the following entry.
May I ask what IC50 has been recorded for `Nc1ncnc2c1ncn2[C@@H]1O[C@H](CSCC[C@H](N)C(=O)O)[C@@H](O)[C@H]1O` ?
3.1 µM

----------
biological target: NSUN2 (Homo sapiens); test: Cell-based m5C-probe methyltransferase assay (flow cytometry, probe 9a)
recorded-metric: IC50 (µM)
Number only, in µM; omit the unit.

Give recorded IC50 with NSUN2 (Homo sapiens) for the following compound: `Nc1ncnc2c1ncn2[C@@H]1O[C@H](C[C@@H](N)CC[C@H](N)C(=O)O)[C@@H](O)[C@H]1O`
8.9

----------
Quick note: these are pIC50 numbers for system: DNMT3A (Homo sapiens)
Sequence (Q9Y6K1 whole entry, looked up): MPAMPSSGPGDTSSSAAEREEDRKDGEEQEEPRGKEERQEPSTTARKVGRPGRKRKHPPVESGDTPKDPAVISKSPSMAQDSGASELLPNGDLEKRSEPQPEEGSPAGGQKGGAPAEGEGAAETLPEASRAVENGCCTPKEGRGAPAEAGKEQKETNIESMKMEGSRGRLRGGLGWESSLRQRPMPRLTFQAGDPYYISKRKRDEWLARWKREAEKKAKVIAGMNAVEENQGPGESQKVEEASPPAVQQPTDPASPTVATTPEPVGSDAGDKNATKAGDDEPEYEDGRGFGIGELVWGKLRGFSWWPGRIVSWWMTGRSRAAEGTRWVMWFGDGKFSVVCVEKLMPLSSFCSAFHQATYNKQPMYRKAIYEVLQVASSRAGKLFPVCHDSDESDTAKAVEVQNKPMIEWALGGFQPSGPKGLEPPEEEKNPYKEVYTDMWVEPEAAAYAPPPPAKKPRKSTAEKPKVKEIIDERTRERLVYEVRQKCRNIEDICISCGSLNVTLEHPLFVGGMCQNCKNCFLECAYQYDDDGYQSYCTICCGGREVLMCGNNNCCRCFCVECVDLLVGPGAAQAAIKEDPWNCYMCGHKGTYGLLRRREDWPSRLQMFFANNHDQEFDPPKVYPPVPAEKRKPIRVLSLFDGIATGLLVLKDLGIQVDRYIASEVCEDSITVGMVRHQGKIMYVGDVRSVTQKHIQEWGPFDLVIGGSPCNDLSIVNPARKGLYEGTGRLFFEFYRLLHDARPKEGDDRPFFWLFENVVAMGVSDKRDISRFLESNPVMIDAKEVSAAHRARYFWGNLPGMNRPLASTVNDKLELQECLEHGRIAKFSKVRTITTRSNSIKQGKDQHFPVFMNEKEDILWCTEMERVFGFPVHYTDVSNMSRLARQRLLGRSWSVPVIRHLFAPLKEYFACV
Hey, just a heads up that pIC50 is the negative log base 10 of the concentration in molar.

{"smiles-entry": "Nc1ncnc2c1ncn2[C@@H]1O[C@H](CO)[C@@H](O)[C@H]1O", "pIC50": 3.97}

Switching to the query record.
Give its pIC50 value. Item: `Nc1ncnc2c1ncn2[C@@H]1O[C@H](C[C@@H](N)CC[C@H](N)C(=O)O)[C@@H](O)[C@H]1O`
6.15
